- subject.of.test: T1, full length human tau protein 2N4R (hT40) (human, UniProt P10636 1-758)
- T1 construct: recombinant; also called T441
- assay.remarks: Biacore

[
  {
    "binder": "S1G10 scAb (scFv, not shown: small tags and cut ends, scAb) scFv: QVQLQESGPSLVKPSQTLSLTCTVSGFSLTSNSVGWVRQAPGKAPEWVAGIDTDGEEGYNPALNSRLSITRDTSKSQVSLSLSSVTSEDTAVYYCGRSYRADGLAYGYVQAIDYWGPGLLVTVSSEGKSSGASGESKVDDQAVLTQPSSMSGSLGQRVSITCSGSFIGISSVGWFQQLPGSGLRTIIVASDGRPSGVPDRFSMSKSGNTATLTISSLQAEDEADYFCGSSDRTQYTGVFGSGTRLTVLG",
    "uom": "pM",
    "Kd": 400
  },
  {
    "binder": "CC7 scAb (scFv, not shown: small tags and cut ends, scAb) scFv: QVQLQESGPSLVKPSQTLSLTCTVSGFSLTSNAVIWVRQAPGKAPEWVALIDVDGDAAYDPALKSRLSITRDTSKSQVSLSLRSVTTEDTAVYYCARDYGSWGYVSDIDYWGPGLLVTVSSEGKSSGASGESKVDDRVVRTQPSSVSGSLGQRVSITCSGSYITGSSVGWFQQVPGSGLKTVIYDNNDRPSGVPDRFSGSKSGDTATLTISSLQAEDEADYYCASYDTSNIGLFGSGTRLTVLG",
    "uom": "pM",
    "Kd": 1200
  }
]
